System tested: T1, 4H932-bA
T1 chain: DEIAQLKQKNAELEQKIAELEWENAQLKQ
Measurement description: two-hybrid library CCNG1;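 note: natural log of median RNA to DNA barcode read ratio; higher means stronger binding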
Listed here are binders together with their documented interaction score.
Quantity measured: interaction score

DEIAQLEQEIAELEQKNAELEWKNAQLKQ [4H56-bA] = -0.898
DEIAQLEQENAELEQKIAELEWKIAQLKQ [4H166-bA] = -0.303
DEIAQLKQENAELKQENAELKWEIAQLKQ [4H730-bA] = -0.52
DKNAQLEQKIAELEQKNAELEWKIAQLEQ [4H3381-bA] = -0.845
